- TESTED TARGET: T1, cynomolgus monkey 5T4 antigen (cynomolgus monkey, UniProt Q4R8Y9 35-420)
- T1 construct: whole, on cells; also called cyno 5T4
- T1 sequence (looked up): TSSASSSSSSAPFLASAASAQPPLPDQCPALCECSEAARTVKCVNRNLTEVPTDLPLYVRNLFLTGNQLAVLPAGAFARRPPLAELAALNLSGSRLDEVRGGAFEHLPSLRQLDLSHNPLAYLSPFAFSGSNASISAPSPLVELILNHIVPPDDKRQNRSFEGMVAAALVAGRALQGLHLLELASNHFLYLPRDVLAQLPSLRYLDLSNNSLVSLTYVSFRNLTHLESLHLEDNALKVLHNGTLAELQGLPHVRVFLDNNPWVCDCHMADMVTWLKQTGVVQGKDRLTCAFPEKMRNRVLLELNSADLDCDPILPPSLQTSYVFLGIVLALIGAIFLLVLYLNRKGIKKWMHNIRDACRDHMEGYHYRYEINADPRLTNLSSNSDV
- ASSAY EXPLANATION: flow cytometry, CHOZN cells expressing cyno 5T4
Each entry below lists one item and its recorded fold improvement of binding compared to H8 on cyno 5T4 value.
RESULT TYPE: fold improvement of binding compared to H8 on cyno 5T4 (fold)

[
  {
    "BINDER": "chimeric anti-5T4 monoclonal antibody 843 (antibody, human IgG1, V domains shown) VH: QSLEESGGRLVTPGTPLTLTCTASGFSLNNAYMNWVRQAPGKGLEWIGIINTYGSTYFATWAKGRFTFSKTSTTVDLKITSPTTEDTATYFCARAYAPFSTYSHYYGMDLWGPGTLVTVSS VL: DVVMTQTPSSVSAAVGGTVTIKCQASESIGSWLSWYQQKPGQPPKLLIYEASKLTSGVPSRFKGSGSGTEYTLTISDLESADAATYYCQYTDYGSNYLGTFGGGTEVVVK",
    "UNIT TEXT": "fold",
    "TEST VALUE": 32
  },
  {
    "BINDER": "chimeric anti-5T4 monoclonal antibody 845 (antibody, human IgG1, V domains shown) VH: QSLEESGGRLVTPGTPLTLTCTVSGIDLSSYTMNWVRQAPGKGLEWIGVITSHNTYYASWAKGRFTISKTSTTVDLKITSPTTEDTATYFCARSNYGSTIYYMGGMDPWGPGTLVTVSS VL: DVVMTQTPASVSAAVGGTVTINCQASQSIGSYLAWYQHQPGQPPKLLIYSASTLESGVSSRFEGSRSGTEYTLTISDLDSADAATYYCQCTDYGASYLGAFGGGTEVVVK",
    "UNIT TEXT": "fold",
    "TEST VALUE": 32
  },
  {
    "BINDER": "chimeric anti-5T4 monoclonal antibody 841 (antibody, human IgG1, V domains shown) VH: QSLEESGGRLVTPGTPLTLTCKASGFSLSTYWMSWVRQAPGKGLEWIGIMLSYGNTVYANWAKGRFTISKTSSTTVDLKITSPTTEDTATYFCARGLYGGYPNYGVYDLWGQGTLVTVSS VL: DVVMTQTPASVEAAVGGTVTIKCQASQSISSYLSWYQQKPGQPPKLLIYAASNLASGVSSRFKGSRSGTEYTLTISDLESADAATYYCQCTDYGSNYVGAFGGGTEVVVK",
    "UNIT TEXT": "fold",
    "TEST VALUE": 32
  },
  {
    "BINDER": "chimeric anti-5T4 monoclonal antibody 789 (antibody, human IgG1, V domains shown, also called clone 789) VH: QSVEESGGRLVTPGTPLTLTCTASGFSLSSYWMSWVRQAPGKGLEWIGIIAGRGSTYYASWAKGRCTISKTSTTVDLKITSPTTEDTAAYFCARVSSIYYTFNLWGQGTLVTVSS VL: AQVLTQTPSSVSAAVGGTVTINCQSSQSVYSNNELSWYQQKPGQPPKLLIYYASTLASGVPSRFKGSGSGTQFTLTISGVQSDDAATYYCQGSYYSGSGWYYAFGGGTEVVVK",
    "UNIT TEXT": "fold",
    "TEST VALUE": 32
  },
  {
    "BINDER": "chimeric anti-5T4 monoclonal antibody 828 (antibody, human IgG1, V domains shown) VH: QSVEESGGRLVTPGTPLTLTCTVSEIDLSTYAMSWVRQAPGKGLEWIGIISAGGSAYYASWAKGRFTISRTSTTVDLKMTSLTTEDTATYFCARGAAYAGYTYGFSFFDIWGPGTLVTVSL VL: DIVMTQTPSSVSAAVGGTVTINCQASQNIYSNLAWYQQKPGQRPKLLIYGASNLESGVPSRFKGSGSGTEYTLTISDLESDDAATYYCQSIDYGNNYLGSFGGGTEVVVK",
    "UNIT TEXT": "fold",
    "TEST VALUE": 7
  }
]

meta.source: patent US20210317231A1
